# measurement_target: human B7-H3 (4Ig) protein (his tag) (human) (UniProt Q5ZPR3)
# test: SPR (Biacore T200), antibody captured on Protein A chip, B7-H3 injected, 1:1 model
Form field: kon (one value per entry).
Number in M⁻¹ s⁻¹, nothing else.

Solved entries (count: 3):
{"binder": "216E7A9 (antibody, V domains shown) VH: DVQLVESGGGLVQPGGSRKLSCAASGFTFSSFGMHWVRQAPEKGLEWVAYISSGSSTIYYADTVRGRFTISRDNPKNTLFLQMTSLRSEDTAMYYCARGGDYYYALDYWGQGTSVTVSS VL: DIQMTQSPASLSVSVGETVTITCRASENIHSNLEWYQQKQGKSPQLLVYAATNLADGVPSRFSGSGSGTQYSLKINSLQSEDFGSYYCQHFWGTPFTFGSGTKLEIK", "unit_of_measure": "M⁻¹ s⁻¹", "kon": 331000}
{"binder": "81C8A1 (antibody, V domains shown) VH: QVTLKESGPGILQPSQTLSLTCSFSGFSLSTSGMGVSWIRQPPGKGLEWLAHIYWDDDRRYNPSLKSRLTISRDTSRNQVFLQITTVDTADTATYYCARSPYGSEAYWGQGTLVIVSA VL: QIVLSQSPTILSAFPGEKVTMTCRASSSVSFIQWYQQKSGSSPKPWIYSPSNLASGVPTRFSGSGSGTSYSLTIGRVEAEDAATYYCQQWSSYPWTFGGGTKVEIK", "unit_of_measure": "M⁻¹ s⁻¹", "kon": 567000}
{"binder": "126C10B10 (antibody, V domains shown) VH: GVQLQQSGAELVKPGASVKLSCTGSGFNIKDPYIHWVKQRPEQGLEWIGRIDPANGNTKYGPRFQGRATMTADTSSNTANLQLSSLTSEDTAVYYCTTWNYYLSRGFDYWGQGTTLTVSS VL: QIVLTQSPAIMSASPGEKVTMTCSARSSVTYMHWYQQKSGTSPKRWIYDTSKLASGVPARFSGSGSGTSYSLTISSMEAEDAATYYCQQWTSNPLTFGAGTKLELK", "unit_of_measure": "M⁻¹ s⁻¹", "kon": 438000}

-- ask What does the data say about its kon? Entry: AHP06358 (antibody, V domains shown) VH: EVQLVQSGAEVKKPGASVKVSCKASGYTFTSYGISWVRQAPGQGLEWMGWISAYNGNTNYAQKLQGRVTMTTDTSTSTAYMELRSLRSDDTAVYYCARDSPLQIAVAGYYYGMDVWGQGTTVTVSS VL: NFMLTQPHSVSESPGKTVTISCTRSSGSIVSGYVQWYQQRPGSAPSTVIYEHNQRPSGVPDRFSGSIDSSSNSASLTISGLRTEDEADYYCQSYDSRNMIFGGGTKLTVL
-- reply 5.37e+06

-- ask What does the data say about its kon? Entry: 62H9H5 (antibody, V domains shown) VH: QVQLQQSGAELAKPGASVKMSCKASGYTFTNYWIHWVKQRPGQGLEWIGYISPSTGYTEYNQKFKGKATLTAVKSSSTAFMQLSSLTSEDSAVYFCARGTGYWGQGTTLTVSS VL: DIQMTQSPASLSASVGESVTITCRASENIYSFFAWYQQKEGKSPQLLVYNAKTLEEGVPSRFSGSGSGTQFSLKINSLQPEDFGSYYCQHNYVSPFTFGSGTKLEIK
-- reply 346000

The origin of these recorded values is patent US20250313632A1.
